EXPERIMENT SUMMARY: Intrinsic clearance in human hepatocytes
Format: ADME, cell-based, Hepatocyte
MEASUREMENT CONDITIONS: read-out: CLH

[
  {
    "SMILES STRUCTURE": "Cc1nc(-c2cnn(C)c2-c2ccc(C(F)(F)F)cn2)c2c(N3CCC3)ncnn12",
    "UNIT OF MEASUREMENT": "mL/min/kg",
    "CLint scaled": 44
  }
]

* * *

EXPERIMENT SUMMARY: AUC (0 to infinity) in beagle dog at 5 mg/kg, po administered via gavage by LC-MS/MS analysis
Type: ADME, organism-based, Canis lupus familiaris
Set-up: dose 5 mg/kg, route oral, time infinity
MEASUREMENT CONDITIONS: in vivo

[
  {
    "SMILES STRUCTURE": "Cc1nc(-c2cnn(C)c2-c2ccc(C(F)(F)F)cn2)c2c(N3CCC3)ncnn12",
    "UNIT OF MEASUREMENT": "ng·h/mL",
    "AUC(0-inf)": 4120
  }
]

* * *

EXPERIMENT SUMMARY: Cmax in Wistar Han rat at 1 mg/kg, iv by LC-MS/MS analysis
Format: ADME, organism-based
Parameters: dose 1 mg/kg, route intravenous
MEASUREMENT CONDITIONS: in vivo

[
  {
    "SMILES STRUCTURE": "Cc1nc(-c2cnn(C)c2-c2ccc(C(F)(F)F)cn2)c2c(N3CCC3)ncnn12",
    "UNIT OF MEASUREMENT": "ng/mL",
    "Cmax": 1020
  }
]

* * *

EXPERIMENT SUMMARY: Tmax in Wistar Han rat at 5 mg/kg, po administered via gavage by LC-MS/MS analysis
Format: ADME, organism-based
MEASUREMENT CONDITIONS: in vivo
VALUE KIND: Tmax (min)

[
  {
    "COMPOUND": "Cc1nc(-c2cnn(C)c2-c2ccc(C(F)(F)F)cn2)c2c(N3CCC3)ncnn12 [PF-05180999]",
    "REPORTED RESULT": 4.8
  }
]

* * *

EXPERIMENT SUMMARY: Tmax in beagle dog at 5 mg/kg, po administered via gavage by LC-MS/MS analysis
Assay type: ADME, organism-based, Canis lupus familiaris
MEASUREMENT CONDITIONS: in vivo

[
  {
    "SMILES STRUCTURE": "Cc1nc(-c2cnn(C)c2-c2ccc(C(F)(F)F)cn2)c2c(N3CCC3)ncnn12",
    "Tmax, min": 15
  }
]

* * *

EXPERIMENT SUMMARY: AUC (0 to infinity) in Wistar Han rat at 5 mg/kg, po administered via gavage by LC-MS/MS analysis
Format: ADME, organism-based
Parameters: dose 5 mg/kg, route oral, time infinity
MEASUREMENT CONDITIONS: in vivo
VALUE KIND: AUC(0-inf) (ng·h/mL)

[
  {
    "COMPOUND": "Cc1nc(-c2cnn(C)c2-c2ccc(C(F)(F)F)cn2)c2c(N3CCC3)ncnn12 [PF-05180999]",
    "REPORTED RESULT": 312
  }
]

* * *

EXPERIMENT SUMMARY: AUC (0 to infinity) in Wistar Han rat at 1 mg/kg, iv by LC-MS/MS analysis
Assay type: ADME, organism-based
Parameters: dose 1 mg/kg, time infinity, route intravenous
MEASUREMENT CONDITIONS: in vivo
VALUE KIND: AUC(0-inf) (ng·h/mL)

[
  {
    "COMPOUND": "Cc1nc(-c2cnn(C)c2-c2ccc(C(F)(F)F)cn2)c2c(N3CCC3)ncnn12 [PF-05180999]",
    "UNIT OF MEASUREMENT": "ng·h/mL",
    "REPORTED RESULT": 141
  }
]

* * *

EXPERIMENT SUMMARY: Cmax in Wistar Han rat at 5 mg/kg, po administered via gavage by LC-MS/MS analysis
Format: ADME, organism-based
Design: dose 5 mg/kg, route oral
MEASUREMENT CONDITIONS: in vivo
VALUE KIND: Cmax (ng/mL)

[
  {
    "SMILES STRUCTURE": "Cc1nc(-c2cnn(C)c2-c2ccc(C(F)(F)F)cn2)c2c(N3CCC3)ncnn12",
    "REPORTED RESULT": 363
  }
]

* * *

EXPERIMENT SUMMARY: Terminal half life in beagle dog at 0.3 mg/kg, iv by LC-MS/MS analysis
Format: ADME, organism-based, Canis lupus familiaris
MEASUREMENT CONDITIONS: in vivo, read-out: beta t1/2 (converted)

[
  {
    "MOLECULE": "Cc1nc(-c2cnn(C)c2-c2ccc(C(F)(F)F)cn2)c2c(N3CCC3)ncnn12 [PF-05180999]",
    "half-life / h": 5
  }
]

* * *

Tested on: human MDR1
EXPERIMENT SUMMARY: Passive permeability from apical to basolateral side in MDCK cells expressing human MDR1
Format: ADME, cell-based, Canis lupus familiaris
MEASUREMENT CONDITIONS: dog, read-out: permeability
VALUE KIND: Papp A→B

[
  {
    "SMILES STRUCTURE": "Cc1nc(-c2cnn(C)c2-c2ccc(C(F)(F)F)cn2)c2c(NCCC(=O)O)ncnn12",
    "MEASURED TARGET": "human MDR1",
    "REPORTED RESULT": "1.1 ×10⁻⁶ cm/s"
  }
]

* * *

EXPERIMENT SUMMARY: Plasma clearance in Wistar Han rat at 1 mg/kg, iv by LC-MS/MS analysis
Assay type: ADME, organism-based

[
  {
    "SMILES STRUCTURE": "Cc1nc(-c2cnn(C)c2-c2ccc(C(F)(F)F)cn2)c2c(N3CCC3)ncnn12",
    "clearance (L/h/kg)": 7.32
  }
]

* * *

EXPERIMENT SUMMARY: Oral bioavailability in beagle dog at 5 mg/kg administered via gavage by LC-MS/MS analysis
Assay type: ADME, organism-based, Canis lupus familiaris
MEASUREMENT CONDITIONS: in vivo

[
  {
    "SMILES STRUCTURE": "Cc1nc(-c2cnn(C)c2-c2ccc(C(F)(F)F)cn2)c2c(N3CCC3)ncnn12",
    "bioavailability / %": 57
  }
]

* * *

EXPERIMENT SUMMARY: Passive permeability in RRCK cells
Format: ADME, cell-based, Canis lupus familiaris, MDCKII-LE
MEASUREMENT CONDITIONS: dog, MDCK; read-out: permeability
VALUE KIND: Papp (×10⁻⁶ cm/s)

[
  {
    "MOLECULE": "Cc1nc(-c2cnn(C)c2-c2ccc(C(F)(F)F)cn2)c2c(N3CCC3)ncnn12 [PF-05180999]",
    "VALUE KIND": "Papp",
    "UNIT OF MEASUREMENT": "×10⁻⁶ cm/s",
    "REPORTED RESULT": 26
  }
]

* * *

Test system: Rattus norvegicus
EXPERIMENT SUMMARY: Toxicity in rat assessed as effect on vasculature at 5 to 250 mg/kg/day, po up to 15 days by microscopic method
Assay type: organism-based
MEASUREMENT CONDITIONS: in vivo, 360 h
VALUE KIND: Activity

[
  {
    "SMILES STRUCTURE": "Cc1nc(-c2cnn(C)c2-c2ccc(C(F)(F)F)cn2)c2c(N3CCC3)ncnn12",
    "REPORTED RESULT": "Non-Toxic"
  },
  {
    "SMILES STRUCTURE": "CNc1ncnn2c(C)nc(-c3cnn(C)c3-c3ccc(C(F)(F)F)cc3)c12",
    "REPORTED RESULT": "Toxic"
  },
  {
    "SMILES STRUCTURE": "CNc1ncnn2c(C)nc(-c3cnn(C)c3-c3ccc(C(F)(F)F)cn3)c12",
    "REPORTED RESULT": "Non-Toxic"
  },
  {
    "SMILES STRUCTURE": "Cc1nc(-c2cnn(C)c2-c2ccc(Cl)cn2)c2c(N3CCC3)ncnn12",
    "REPORTED RESULT": "Toxic"
  }
]

* * *

EXPERIMENT SUMMARY: Cmax in beagle dog at 0.3 mg/kg, iv by LC-MS/MS analysis
Format: ADME, organism-based, Canis lupus familiaris
Parameters: dose 0.3 mg/kg, route intravenous
MEASUREMENT CONDITIONS: in vivo
VALUE KIND: Cmax (ng/mL)

[
  {
    "MOLECULE": "Cc1nc(-c2cnn(C)c2-c2ccc(C(F)(F)F)cn2)c2c(N3CCC3)ncnn12 [PF-05180999]",
    "UNIT OF MEASUREMENT": "ng/mL",
    "REPORTED RESULT": 293
  }
]

* * *

System: Rattus norvegicus
EXPERIMENT SUMMARY: Cardiotoxicity in rat at 5 to 250 mg/kg/day, po up to 15 days by microscopic method
Assay type: toxicity, organism-based
MEASUREMENT CONDITIONS: in vivo, 360 h
VALUE KIND: Activity

[
  {
    "COMPOUND": "Cc1nc(-c2cnn(C)c2-c2ccc(Cl)cn2)c2c(N3CCC3)ncnn12",
    "MEASURED TARGET": "Rattus norvegicus",
    "REPORTED RESULT": "Toxic"
  },
  {
    "COMPOUND": "CNc1ncnn2c(C)nc(-c3cnn(C)c3-c3ccc(C(F)(F)F)cc3)c12",
    "MEASURED TARGET": "Rattus norvegicus",
    "REPORTED RESULT": "Toxic"
  },
  {
    "COMPOUND": "Cc1nc(-c2cnn(C)c2-c2ccc(C(F)(F)F)cn2)c2c(N3CCC3)ncnn12 [PF-05180999]",
    "MEASURED TARGET": "Rattus norvegicus",
    "REPORTED RESULT": "Non-Toxic"
  },
  {
    "COMPOUND": "CNc1ncnn2c(C)nc(-c3cnn(C)c3-c3ccc(C(F)(F)F)cn3)c12",
    "MEASURED TARGET": "Rattus norvegicus",
    "REPORTED RESULT": "Non-Toxic"
  }
]
